Biological target: rat kidney BGL (Rattus norvegicus)
Sequence (A0A0G2JVP8 1-469): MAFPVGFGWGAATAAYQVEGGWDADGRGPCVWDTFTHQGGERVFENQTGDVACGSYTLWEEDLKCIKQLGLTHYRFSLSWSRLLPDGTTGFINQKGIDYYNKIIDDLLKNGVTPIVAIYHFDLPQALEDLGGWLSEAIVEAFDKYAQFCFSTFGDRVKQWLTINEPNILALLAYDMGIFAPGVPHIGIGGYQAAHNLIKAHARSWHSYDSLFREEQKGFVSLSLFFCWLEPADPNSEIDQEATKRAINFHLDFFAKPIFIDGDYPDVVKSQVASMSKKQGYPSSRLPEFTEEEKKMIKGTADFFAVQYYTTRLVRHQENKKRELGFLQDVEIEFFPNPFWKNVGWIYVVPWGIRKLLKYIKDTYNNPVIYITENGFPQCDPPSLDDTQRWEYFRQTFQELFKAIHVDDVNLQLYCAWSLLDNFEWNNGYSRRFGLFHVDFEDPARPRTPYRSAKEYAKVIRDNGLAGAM
pIC50: −log10 of the molar value.
measured-metric: pIC50

[[record]]
molecule = "Cc1nnc(SCC2=C(C(=O)O)N3C(=O)[C@@H](NC(=O)Cn4cnnn4)[C@H]3SC2)s1 [Cefazolin sodium]"
observed_result = 1.01

[[record]]
molecule = "CO/N=C(\\C(=O)N[C@@H]1C(=O)N2C(C(=O)O)=C(COC(N)=O)CS[C@H]12)c1ccco1"
observed_result = 1.11

